# assay-protocol: Sensory evaluation of Vermont drink containing the agent
# measurement-conditions: 0.02 ppt, ten panels
endpoint-name: N: number of panels, irritation of acid reduced to give a mild acid taste
Form rule: numeric answer, no unit written next to it.

Known N: number of panels, irritation of acid reduced to give a mild acid taste results, listed for orientation:
>>> value_measured("CCCCC/C=C/C/C=C\\CCC=O [(Z,E)-4,7-tridecadienal]")
0
>>> value_measured("CCCCC/C=C\\C/C=C/C=C/C=O [(E,E,Z)-2,4,7-tridecatrienal]")
0
>>> value_measured("CCCCC/C=C/C/C=C\\C=C\\C=O [(E,Z,E)-2,4,7-tridecatrienal]")
0
>>> value_measured("CCCCC/C=C/C/C=C/CCC=O [(E,E)-4,7-tridecadienal]")
0

Let us examine a further case.
stdin: If you can, please state the reported N: number of panels, irritation of acid reduced to give a mild acid taste value of CCCCC/C=C/C/C=C/C=C/C=O [(E,E,E)-2,4,7-tridecatrienal] .
stdout: 0

Sourced from patent US20140120232A1
